# System: Rattus norvegicus
# METHOD: Tested for antiallergy activity in rat passive cutaneous anaphylaxis (PCA) test at 32 mg/kg administered perorally
# Assay type: functional
# CONDITION: route oral
Mark N for inhibition in vivo at 32 mg/kg values under 70%, and Y for everything at or above.

compound=CC(C)c1cc(C(C)C)c2ncn(/C=C/C(=O)O)c(=O)c2c1 assigned_class=Y
compound="O=C(O)c1cc(=O)c2c(OCC(O)COc3cccc4oc(C(=O)O)cc(=O)c34)cccc2o1 [CROMOLYN SODIUM]" assigned_class=N
compound=O=C(O)/C=C/n1cnc2ccc(OCCO)cc2c1=O assigned_class=Y
compound="C[S+]([O-])c1ccc2ncn(/C=C/C(=O)O)c(=O)c2c1 (configuration not stated)" assigned_class=N
compound=CC(C)c1ccc2ncn(/C=C/C(=O)O)c(=O)c2c1 assigned_class=Y
compound=O=C(O)/C=C/n1cnc2ccc(Cl)cc2c1=O assigned_class=N
compound=O=C(O)/C=C/n1cnc2ccccc2c1=O assigned_class=N
compound=CC(C)Sc1ccc2ncn(/C=C/C(=O)O)c(=O)c2c1 assigned_class=N
compound=COc1ccc2ncn(/C=C/C(=O)O)c(=O)c2c1 assigned_class=N
compound="CSc1ccc2ncn(/C=C/C(=O)O)c(=O)c2c1 [TIACRILAST]" assigned_class=Y
